# experimentalSystem: CD28 (Homo sapiens, UniProt P10747)
# testProtocol: Jurkat/IL2 + CHO/OKT3 +/- PD-L1 reporter assay: PD-L1-dependent CD28 costimulation
# Type: cell-based
# Design: host or cells: Jurkat cells expressing an IL-2-luciferase reporter
# settings: Table E24; Jurkat/IL2 + CHO/OKT3/PD-L1; 5.0 nM
# Description: Jurkat cells were then plated at 50 μL/well for a total of 100,000 cells per well. To each well, 25 μL of test protein was added to the Jurkat cells. […] The Jurkat cells with test or control proteins were incubated for 15 minutes at room temperature. […] Luminescence was measured with a 1 second per well integration time using a BioTek Cytation luminometer, and a relative luminescence value (RLU) was determined for each test sample.
measuredParameter: Fold Increase over WT CD80-IgV-Fe
Enter the number alone.

H18V/A26Q/E35D/M47V/V68L/A71G/D90G (protein, UniProt P33681 35-288, looked up, variant H18V A26Q E35D M47V V68L A71G D90G) T-lymphocyte activation …: VIHVTKEVKEVATLSCGVNVSVEELQQTRIYWQKDKKMVLTMMSGDVNIWPEYKNRTIFDITNNLSILILGLRPSDEGTYECVVLKYEKGAFKREHLAEVTLSVKADFPTPSISDFEIPTSNIRRIICSTSGGFPEPHLSWLENGEELNAINTTVSQDPETELYAVSSKLDFNMTTNHSFMCLIKYGHLRVNQTFNWNTTKQEHFPDNLLPSWAITLISVNGIFVICCLTYCFAPRCRERRRNERLRRESVRPV : 4.6

The record that follows has no Fold Increase over WT CD80-IgV-Fe shown yet.
Given item H18F/A26N/E35D/M47V/V68M/A71G/D90K (protein, UniProt P33681 35-288, looked up, variant H18F A26N E35D M47V V68M A71G D90K) T-lymphocyte activation …: VIHVTKEVKEVATLSCGFNVSVEELNQTRIYWQKDKKMVLTMMSGDVNIWPEYKNRTIFDITNNLSIMILGLRPSDEGTYECVVLKYEKKAFKREHLAEVTLSVKADFPTPSISDFEIPTSNIRRIICSTSGGFPEPHLSWLENGEELNAINTTVSQDPETELYAVSSKLDFNMTTNHSFMCLIKYGHLRVNQTFNWNTTKQEHFPDNLLPSWAITLISVNGIFVICCLTYCFAPRCRERRRNERLRRESVRPV , the value recorded as its Fold Increase over WT CD80-IgV-Fe is 5.4
